- target_or_test_system: 5-HT2CR (Homo sapiens, UniProt P28335)
- Sequence (P28335 33-458): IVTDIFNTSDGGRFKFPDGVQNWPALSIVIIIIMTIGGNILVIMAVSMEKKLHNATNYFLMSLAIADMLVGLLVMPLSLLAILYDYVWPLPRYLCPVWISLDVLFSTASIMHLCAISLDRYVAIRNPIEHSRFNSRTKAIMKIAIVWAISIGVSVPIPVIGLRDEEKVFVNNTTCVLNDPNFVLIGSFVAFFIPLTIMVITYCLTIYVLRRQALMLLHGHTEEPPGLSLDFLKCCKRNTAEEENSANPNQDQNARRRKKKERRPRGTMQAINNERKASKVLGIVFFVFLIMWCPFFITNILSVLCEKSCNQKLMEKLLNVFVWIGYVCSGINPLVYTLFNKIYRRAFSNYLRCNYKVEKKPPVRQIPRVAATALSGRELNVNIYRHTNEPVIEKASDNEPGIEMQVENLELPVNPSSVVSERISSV
- procedure_text: 5-HT2CR binding affinity (Ki), Table 8
- details: read-out: 5-HT2CR Ki
pKi: −log10 of the molar value.
property: pKi

Looking for the measured pKi of C[C@@H]1C=C(c2c[nH]c3ncccc23)CN(CC2(C)COC2)C1 [compound 25] , can you help?
< 5.00

Also, C[C@@H]1C=C(c2cncc(Cl)c2)CN(CCC2CCCC2)C1 [Compound 19] please.
< 5.00

Also, C[C@H]1C=C(c2c[nH]c3ncccc23)CN(C)C1 [compound 34] please.
6.12

Also, C[C@H]1C=C(c2c[nH]c3ncccc23)CN(C2COC2)C1 [compound 28] please.
< 5.00

Also, Cc1cncc(C2=C[C@H](C)CN(CC3(O)COC3)C2)c1 (stereo in doubt) [Compound 6] please.
< 5.00

Also, CCCCN1CC(c2cncc(C)c2)=C[C@@H](C)C1 [Compound 13] please.
< 5.00

Also, CCCCCN1CC(c2cncc(Cl)c2)=C[C@H](C)C1 [Compound 10] please.
5.78

Also, C[C@H]1C=C(c2cncc(Cl)c2)CN(C)C1 (stereo in doubt) [Compound 18] please.
< 5.00

Also, Cc1cncc(C2=C[C@@H](C)CN(CC3(O)COC3)C2)c1 [Compound 5] please.
< 5.00

Also, Cc1ncc(CCN2CC(c3c[nH]c4ncccc34)=C[C@H](C)C2)cn1 [compound 41] please.
7.52

Also, C[C@@H]1C=C(c2c[nH]c3ncccc23)CN(C2COC2)C1 [compound 27] please.
< 5.00

Also, C[C@@H]1C=C(c2cncc(Cl)c2)CN(CC2(O)COC2)C1 [Compound 7] please.
< 5.00

Also, C[C@H]1C=C(c2c[nH]c3ncccc23)CN(CCCN(C)C)C1 [compound 32] please.
< 5.00

Also, C[C@H]1C=C(c2c[nH]c3ncccc23)CN(CC2(C)COC2)C1 [compound 26] please.
< 5.00

Also, C[C@H]1C=C(c2cncc(Cl)c2)CN(CC2(O)COC2)C1 [Compound 8] please.
< 5.00

Also, CCCCN1CC(c2cncc(C)c2)=C[C@H](C)C1 (stereo in doubt) [Compound 14] please.
< 5.00

Also, CCCN1CC(c2c[nH]c3ncccc23)=C[C@H](C)C1 [Compound 24] please.
< 5.00

Also, C[C@@H]1C=C(c2c[nH]c3ncccc23)CN(CCCN(C)C)C1 [compound 31] please.
< 5.00

Also, Cc1ncc(CCN2CC(c3c[nH]c4ncccc34)=C[C@@H](C)C2)cn1 [compound 40] please.
6.08

Also, C[C@@H]1C=C(c2c[nH]c3ncccc23)CN(Cc2cnco2)C1 [compound 47] please.
< 5.00

Also, c1cnc2[nH]cc(C3CCCNC3)c2c1 (single isomer, unassigned) [compound 50] please.
5.56

Also, C[C@@H]1C=C(c2c[nH]c3ncccc23)CN(C)C1 [compound 33] please.
6.32

Also, CCCN1CC(c2cncc(Cl)c2)=C[C@@H](C)C1 [Compound 15] please.
< 5.00

Also, C[C@H]1C=C(c2c[nH]c3ncccc23)CN(CCCc2cnn(C)c2)C1 [compound 44] please.
< 5.00

Also, C[C@H]1C=C(c2c[nH]c3ncccc23)CN(CC2CC2)C1 [compound 46] please.
6.11

Also, C[C@@H]1C=C(c2c[nH]c3ncccc23)CN(CCCc2cnn(C)c2)C1 [compound 43] please.
< 5.00

Also, C[C@@H]1C=C(c2c[nH]c3ncccc23)CN(C2CC2)C1 [compound 29] please.
< 5.00

Also, C[C@H]1C=C(c2c[nH]c3ncccc23)CN(C2CC2)C1 [compound 30] please.
< 5.00

Also, CCCCN1CC(c2c[nH]c3ncccc23)=C[C@@H](C)C1 [Compound 21] please.
< 5.00

Also, CCCCCN1CC(c2cncc(Cl)c2)=C[C@@H](C)C1 [Compound 9] please.
< 5.00

Also, CCCCN1CC(c2c[nH]c3ncccc23)=C[C@H](C)C1 [Compound 22] please.
5.15

Also, C[C@H]1C=C(c2c[nH]c3ncccc23)CN(Cc2cnco2)C1 [compound 48] please.
< 5.00

Also, C[C@H]1C=C(c2cncc(Cl)c2)CN(CCC2CCCC2)C1 [Compound 20] please.
< 5.00

Also, c1cnc2[nH]cc(C3CCCNC3)c2c1 (single isomer, unassigned) [compound 51] please.
6.32

Also, CCCCN1CC(c2cncc(Cl)c2)=C[C@H](C)C1 [Compound 12] please.
< 5.00

Also, C[C@@H]1C=C(c2c[nH]c3ncccc23)CN(CC2CC2)C1 [compound 45] please.
5.36

Also, CCCN1CC(c2c[nH]c3ncccc23)=C[C@@H](C)C1 [Compound 23] please.
< 5.00

Also, C[C@@H]1C=C(c2cncc(Cl)c2)CN(C)C1 (stereo in doubt) [Compound 17] please.
< 5.00

Also, CCCCN1CC(c2cncc(Cl)c2)=C[C@@H](C)C1 [Compound 11] please.
< 5.00

Also, CCCN1CC(c2cncc(Cl)c2)=C[C@H](C)C1 [Compound 16] please.
5.19

* * *

- target_or_test_system: 5-HT2AR (Homo sapiens, UniProt P28223)
- Construct: expressed in transfected cells; host or cells: Flp-In 293 T-Rex (tetracycline inducible)
- Sequence (P28223 whole entry): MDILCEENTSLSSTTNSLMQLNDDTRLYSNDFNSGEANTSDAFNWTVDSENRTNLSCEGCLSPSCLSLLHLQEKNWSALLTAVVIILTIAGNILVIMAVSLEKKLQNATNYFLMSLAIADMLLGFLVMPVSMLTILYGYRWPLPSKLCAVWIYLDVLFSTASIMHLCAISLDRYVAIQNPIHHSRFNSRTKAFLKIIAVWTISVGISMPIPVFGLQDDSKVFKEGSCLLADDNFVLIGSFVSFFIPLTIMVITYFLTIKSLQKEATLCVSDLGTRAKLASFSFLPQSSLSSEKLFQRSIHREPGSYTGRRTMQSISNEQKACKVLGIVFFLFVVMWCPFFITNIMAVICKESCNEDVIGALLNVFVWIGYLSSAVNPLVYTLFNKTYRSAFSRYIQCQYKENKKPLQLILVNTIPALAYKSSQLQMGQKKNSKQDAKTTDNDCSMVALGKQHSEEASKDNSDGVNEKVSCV
- procedure_text: 5-HT2AR binding affinity (Ki), Table 8
- details: read-out: 5-HT2AR Ki
property: pKi
# pKi = -log10(concentration in molar units)

Looking for the measured pKi of C[C@@H]1C=C(c2c[nH]c3ncccc23)CN(Cc2cnco2)C1 [compound 47] , can you help?
5.14

Also, C[C@@H]1C=C(c2cncc(Cl)c2)CN(C)C1 (stereo in doubt) [Compound 17] please.
5.68

Also, C[C@@H]1C=C(c2c[nH]c3ncccc23)CNC1 [compound 38] please.
6.17

Also, c1cnc2[nH]cc(C3CCCNC3)c2c1 (single isomer, unassigned) [compound 51] please.
5.56

Also, C[C@H]1C=C(c2cncc(Cl)c2)CN(CCC2CCCC2)C1 [Compound 20] please.
5.36

Also, C[C@H]1C=C(c2c[nH]c3ncccc23)CN(CCCc2cnn(C)c2)C1 [compound 44] please.
5.63

Also, C[C@@H]1C=C(c2c[nH]c3ncccc23)CN(CC2CC2)C1 [compound 45] please.
5.53

Also, CCCCN1CC(c2c[nH]c3ncccc23)=C[C@H](C)C1 [Compound 22] please.
5.28

Also, CCCN1CC(c2c[nH]c3ncccc23)=C[C@@H](C)C1 [Compound 23] please.
5.91

Also, c1cnc2[nH]cc(C3CCCNC3)c2c1 (single isomer, unassigned) [compound 50] please.
5.28

Also, CCCCN1CC(c2c[nH]c3ncccc23)=C[C@@H](C)C1 [Compound 21] please.
5.66

* * *

Hi there, I'd appreciate the recorded pKi for every entry that follows.
- target_or_test_system: 5-HT2AR (Homo sapiens, UniProt P28223)
- Construct: expressed in transfected cells; host or cells: Flp-In 293 T-Rex (tetracycline inducible)
- procedure_text: 5-HT2AR binding affinity (Ki), Table 8
- details: read-out: 5-HT2AR Ki
# pKi = -log10(concentration in molar units)

Looking for the measured pKi of C[C@@H]1C=C(c2c[nH]c3ncccc23)CN(C)C1 [compound 33] , can you help?
6.06

Also, C[C@H]1C=C(c2c[nH]c3ncccc23)CN(C)C1 [compound 34] please.
5.82

Also, C[C@@H]1C=C(c2c[nH]c3ncccc23)CN(C2CC2)C1 [compound 29] please.
5.21

Also, CCCN1CC(c2cncc(Cl)c2)=C[C@H](C)C1 [Compound 16] please.
5.14

Also, C[C@H]1C=C(c2cncc(Cl)c2)CN(C)C1 (stereo in doubt) [Compound 18] please.
5.49

Also, Cc1ncc(CCN2CC(c3c[nH]c4ncccc34)=C[C@H](C)C2)cn1 [compound 41] please.
7.60

Also, C[C@H]1C=C(c2c[nH]c3ncccc23)CN(CC2CC2)C1 [compound 46] please.
5.61
